# Test system: WT LV9 L. donovani intramacrophage amastigotes
# Assay name: L. donovani intramacrophage amastigote assay
# Assay type: cell-based, Leishmania donovani
# Measurement setup: Leishmania donovani, WT LV9; ± SD in Tables S5/S6; read-out: IC50 L. donovani intramacrophage amastigotes
Values of IC50 strictly less than 7 µM map to rule met, and values of at least 7 µM map to rule not met.

Compound	Assigned label
COc1ccc(C2CC(=O)CC(c3ccc(OC)cc3)S2(=O)=O)cc1 (racemic)	rule not met
C[C@@H]1[C@H](O)[C@@H](C)/C=C/C=C/C=C/C=C/C=C/C=C/C=C/[C@H](O[C@@H]2O[C@H](C)[C@@H](O)[C@H](N)[C@@H]2O)C[C@@H]2O[C@](O)(C[C@@H](O)C[C@@H](O)[C@H](O)CC[C@@H](O)C[C@@H](O)CC(=O)O[C@H]1C)C[C@H](O)[C@H]2C(=O)O [Amphotericin B, reference compound]	rule met
O=C(/C=C/c1ccccc1Cl)/C=C/c1ccccc1Cl	rule not met
CCCCCCCCCCCCCCCCOP(=O)([O-])OCC[N+](C)(C)C [miltefosine, Hexadecyl-Phosphoryl-Choline, reference compound]	rule not met
O=C1CC(c2ccccn2)[S+]([O-])C(c2ccccn2)C1 (stereo not drawn) [3w]	rule not met

[in] Problem: For the compound O=C1CC(c2ccccn2)SC(c2ccccn2)C1 (stereo not drawn) , is IC50 under 7 µM?
[out] rule not met

[in] What would you report for `O=C(/C=C/c1ccco1)/C=C/c1ccco1` ?
[out] rule not met

[in] Further, for O=C1CC(c2ccccn2)[S+]([O-])C(c2ccccn2)C1 (mixture of isomers) [3′w] ?
[out] rule met

[in] Next compound: O=C1C[C@H](c2ccccn2)S[C@@H](c2ccccn2)C1 (racemic)
[out] rule not met

----------
IC50 values by entry
# Test system: Trypanosoma cruzi (Tulahuen CL2 β-galactosidase) amastigotes in hMRC-5SV2 cells
# Assay name: T. cruzi intracellular amastigote assay (β-galactosidase/CPRG)
# Format: cell-based
# Measurement setup: intracellular amastigotes, 7 days; read-out: IC50 T. cruzi intramacrophage amastigotes (converted)
Give just the numeric value; µM need not be written.

> print(dat)
                                   compound  test.result
1  CN(C)c1ccc(/C=C/C(=O)/C=C/c2ccc(C(F)(F)F)cc2)cc1         31.7
2  O=C1C[C@@H](c2ccc(F)cc2)S[C@@H](c2ccc(F)cc2)C1          1.4
3  COc1cc([C@@H]2CC(=O)C[C@H](c3cc(OC)c(C)cc3OC)S2)c(OC)cc1C         37.2

[in] // IC50 lookup, key: COc1ccc(C2CC(=O)CC(c3ccc(OC)cc3)[S+]2[O-])cc1 (stereo not shown) [3″d]
[out] 8.5

----------
This section presents molecules with their documented log10 CC50 at 3 days values.
# Assay name: in vitro
# Measurement setup: human, CC50 hMRC-5 (cytotoxicity)
Field: value | Transform: log10 | Quantity: CC50 at 3 days | Unit: µM

Below, 5 molecules whose answers are already recorded.
Molecule	log10 CC50 at 3 days
Cc1ccc(/C=C/C(=O)/C=C/c2ccc(C)o2)o1	0.73
COc1ccc(C2CC(=O)CC(c3ccc(OC)cc3)[S+]2[O-])cc1 (mixture of isomers)	1.51
O=C1CC(c2ccccn2)[S+]([O-])C(c2ccccn2)C1 (stereo not shown) [3w]	0.90
COc1cc(Br)c(OC)c(/C=C/C(=O)/C=C/c2cc(OC)cc(Br)c2OC)c1	-0.10
COc1ccc(/C=C/C(=O)/C=C/c2ccc(OC)c(OC)c2)cc1OC	0.84

[in] Consider the molecule `Cc1ccc(/C=C/C(=O)/C=C/c2ccc(C)cc2)cc1` and give its measured log10 CC50 at 3 days.
[out] 1.51

[in] Quick one: O=C1CC(c2ccccn2)S(=O)(=O)C(c2ccccn2)C1 (racemic)
[out] 0.90

[in] Try this molecule next: `Cl.Cl.O=C(/C=C/c1cccnc1)/C=C/c1cccnc1`
[out] 0.04

[in] Another molecule to look at: `COc1ccc(OC)c(/C=C/C(=O)/C=C/c2cc(OC)ccc2OC)c1`
[out] 0.00

[in] Item: `Cl.Cl.O=C(/C=C/c1ccncc1)/C=C/c1ccncc1`
[out] 0.04

[in] Lookup `O=C(/C=C/c1ccc(C(F)(F)F)cc1)/C=C/c1ccc(C(F)(F)F)cc1`
[out] 1.42

[in] How about this molecule: `COc1ccc(O)c(/C=C/C(=O)/C=C/c2cc(OC)ccc2O)c1`
[out] 0.28

[in] Further, for `COc1cc(Br)c(O)c(/C=C/C(=O)/C=C/c2cc(OC)cc(Br)c2O)c1` ?
[out] 0.00

[in] Same read-out for `O=C(/C=C/c1ccc(Cl)cc1)/C=C/c1ccc(Cl)cc1` ?
[out] 1.63

[in] Would you mind doing `N#Cc1ccc(/C=C/C(=O)/C=C/c2ccc(C#N)cc2)cc1` as well?
[out] 1.76

[in] Try this molecule too: `O=C(/C=C/c1ccccn1)/C=C/c1ccccn1`
[out] 0.28

[in] What do we get for `O=C(/C=C/c1ccc(OC(F)(F)F)cc1)/C=C/c1ccc(OC(F)(F)F)cc1` ?
[out] 1.52

----------
Listed here: items and their measured pIC50.
# Tested on: L. infantum (MHOM/MA(BE)/67) amastigotes in primary peritoneal mouse macrophages
# Assay name: L. infantum intramacrophage amastigote assay (microscopic burden)
# Type: cell-based, Leishmania infantum
# Measurement setup: 5 days, mouse macrophages as host
The read-out pIC50 is expressed as -log10 of concentration in moles per litre.

# annotated cases, reported pIC50 shown
> print(dat)
                                   compound  test.result
1  O=C1CC(c2ccc(Cl)cc2)SC(c2ccc(Cl)cc2)C1 (racemic)         4.48
2  O=C1CC(c2ccccn2)S(=O)(=O)C(c2ccccn2)C1 (stereo not drawn)         5.70
3  O=C1CC(c2ccc(C(F)(F)F)cc2)SC(c2ccc(C(F)(F)F)cc2)C1 (racemic)         4.49

Now for the compound whose pIC50 we want.
[in] Give recorded pIC50 with L. infantum (MHOM/MA(BE)/67) amastigotes in primary peritoneal mouse macrophages for the following compound: `Cc1ccccc1/C=C/C(=O)/C=C/c1ccccc1C`
[out] 5.09

----------
# System: Trypanosoma cruzi (Tulahuen CL2 β-galactosidase) amastigotes in hMRC-5SV2 cells
# Assay name: T. cruzi intracellular amastigote assay (β-galactosidase/CPRG)
# Type: cell-based
# Measurement setup: Trypanosoma cruzi, TULAHUEN, 168 h, intracellular amastigotes, 7 days; read-out: IC50 T. cruzi intramacrophage amastigotes (converted)
# Protocol: A nifurtimox-sensitive strain (Tulahuen CL2 β-galactosidase) in human lung fibroblast hMRC-5SV2 cells was incubated for 7 days in 96-well plates with five concentrations of compound (64, 16, 4, 1, and 0.25 μM). The parasitic burden was evaluated through the activity of the enzyme β-galactosidase on a specific chlorophenol red ß-D-galactopyranoside (CPRG) substrate. […]
Attribute: IC50

[in] Could you tell me which IC50 is on file for Cl.Cl.O=C(/C=C/c1ccncc1)/C=C/c1ccncc1 [1y] ?
[out] ≤ 300 nM

[in] Again, but for O=C1CC(c2ccccn2)S(=O)(=O)C(c2ccccn2)C1 (racemic) [4w]
[out] 400 nM

[in] Likewise for O=C(/C=C/c1ccco1)/C=C/c1ccco1 [1z] ?
[out] 39900 nM

[in] Similarly, COc1ccc(C2CC(=O)CC(c3ccc(OC)cc3)S2)cc1 (stereo not drawn) [2′d] ?
[out] > 64000 nM

[in] Repeat for the following molecule: O=C1CC(c2ccccn2)[S+]([O-])C(c2ccccn2)C1 (stereo not drawn) [3w]
[out] 800 nM

[in] CN(C)c1ccc(/C=C/C(=O)/C=C/c2ccc(N(C)C)cc2)cc1 [1u] , same question.
[out] 36900 nM

[in] Same again, this time with COc1ccc(O)c(/C=C/C(=O)/C=C/c2cc(OC)ccc2O)c1 [1l]
[out] 1000 nM

[in] Also Cl.Cl.O=C(/C=C/c1cccnc1)/C=C/c1cccnc1 [1x] , if possible.
[out] 900 nM

[in] Queued: O=C(/C=C/c1c(Cl)cccc1Cl)/C=C/c1c(Cl)cccc1Cl [1h]
[out] 39500 nM

[in] Then what about the molecule O=C(Cn1ccnc1[N+](=O)[O-])NCc1ccccc1 [benznidazole, reference compound] ?
[out] 1930 nM

[in] Same question, COc1cc(Br)c(OC)c(/C=C/C(=O)/C=C/c2cc(OC)cc(Br)c2OC)c1 [1q] this time
[out] 900 nM

----------
# Assay name: Solubility observations (crystals in assay, insolubility in solvents)
# Type: physicochemical
# Measurement setup: noted in L. donovani assay, Table S5
This section presents compounds with their documented presence of crystals, concentration range values.

// known answers, use as guide
> print(dat)
                                   compound     test.result
1           O=C(/C=C/c1ccccc1)/C=C/c1ccccc1  12.5 to 200 µM
2  O=C1CC(c2ccccc2)SC(c2ccccc2)C1 (racemic)  6.25 to 200 µM
3  O=C1CC(c2c(Cl)cccc2Cl)SC(c2c(Cl)cccc2Cl)C1 (racemic)  12.5 to 200 µM
4     Cc1ccc(/C=C/C(=O)/C=C/c2ccc(C)cc2)cc1    25 to 100 µM
5  O=C(/C=C/c1c(Cl)cccc1Cl)/C=C/c1c(Cl)cccc1Cl   0.8 to 200 µM

Moving on to another compound below.
[in] For `Cc1ccc(/C=C/C(=O)/C=C/c2ccccc2)cc1` , what is its reported presence of crystals, concentration range?
[out] 3.1 to 200 µM
